Would you kindly list melting point for each of these compounds?

Q) Identify measured melting point corresponding to `Cc1nc2c(c(-c3ccccc3)c(-c3ccccc3)n2-c2ccc(Cl)c(Cl)c2)c(=O)[nH]1`
A) 200 to 202 °C

Q) Identify measured melting point corresponding to `Cc1nc(Cl)c2c(-c3ccccc3)c(-c3ccccc3)n(-c3c(C)n(C)n(-c4ccccc4)c3=O)c2n1`
A) 158 to 160 °C

Q) Identify measured melting point corresponding to `Cc1nc(Cl)c2c(-c3ccccc3)c(-c3ccccc3)n(-c3ccc(Cl)c(Cl)c3)c2n1`
A) 108 to 110 °C

Q) Identify measured melting point corresponding to `Cc1nc2c(c(-c3ccccc3)cn2-c2c(C)n(C)n(-c3ccccc3)c2=O)c(=O)[nH]1`
A) 225 to 227 °C

Q) Identify measured melting point corresponding to `N#Cc1c(-c2ccccc2)c(-c2ccccc2)n(Cc2ccccc2)c1NN=C1C(N)=NN=C1O`
A) 97 to 100 °C

Q) Identify measured melting point corresponding to `Cc1c(-n2cc(-c3ccccc3)c(C#N)c2NN=C2C(N)=NN=C2N)c(=O)n(-c2ccccc2)n1C`
A) 135 to 138 °C

Q) Identify measured melting point corresponding to `Cc1c(-n2cc(-c3ccccc3)c3c(NN)ncnc32)c(=O)n(-c2ccccc2)n1C`
A) 142 to 146 °C

Q) Identify measured melting point corresponding to `CC(=O)Nc1c(C#N)c(-c2ccccc2)cn1-c1c(C)n(C)n(-c2ccccc2)c1=O`
A) 135 to 138 °C

Q) Identify measured melting point corresponding to `Cc1c(-n2cc(-c3ccccc3)c3c(=S)[nH]cnc32)c(=O)n(-c2ccccc2)n1C`
A) 142 to 166 °C

Q) Identify measured melting point corresponding to `Clc1ccc(-n2c(-c3ccccc3)c(-c3ccccc3)c3c(Cl)ncnc32)cc1Cl`
A) 124 to 128 °C

Q) Identify measured melting point corresponding to `Cc1nc(NN)c2c(-c3ccccc3)c(-c3ccccc3)n(Cc3ccccc3)c2n1`
A) 147 to 152 °C

Q) Identify measured melting point corresponding to `Cc1nc(NN)c2c(-c3ccccc3)c(-c3ccccc3)n(-c3c(C)n(C)n(-c4ccccc4)c3=O)c2n1`
A) 185 to 188 °C

Q) Identify measured melting point corresponding to `NNc1ncnc2c1c(-c1ccccc1)c(-c1ccccc1)n2-c1ccc(Cl)c(Cl)c1`
A) 122 to 126 °C

* * *

recorded.metric: melting point

Q) Identify measured melting point corresponding to `CC(=O)Nc1c(C#N)c(-c2ccccc2)c(-c2ccccc2)n1-c1ccc(Cl)c(Cl)c1`
A) 135 to 138 °C

Q) Identify measured melting point corresponding to `Cc1nc(Cl)c2c(-c3ccccc3)cn(-c3c(C)n(C)n(-c4ccccc4)c3=O)c2n1`
A) 95 to 100 °C

Q) Identify measured melting point corresponding to `Cc1nc(Cl)c2c(-c3ccccc3)c(-c3ccccc3)n(Cc3ccccc3)c2n1`
A) 120 to 124 °C

Q) Identify measured melting point corresponding to `Cc1nc(NN)c2c(-c3ccccc3)c(-c3ccccc3)n(-c3ccc(Cl)c(Cl)c3)c2n1`
A) 142 to 146 °C

Q) Identify measured melting point corresponding to `Cc1nc(NN)c2c(-c3ccccc3)cn(-c3c(C)n(C)n(-c4ccccc4)c3=O)c2n1`
A) 148 to 150 °C

Q) Identify measured melting point corresponding to `O=c1[nH]cnc2c1c(-c1ccccc1)c(-c1ccccc1)n2-c1ccc(Cl)c(Cl)c1`
A) 172 to 176 °C

Q) Identify measured melting point corresponding to `Cc1c(-n2cc(-c3ccccc3)c3c(=O)[nH]cnc32)c(=O)n(-c2ccccc2)n1C`
A) 205 to 208 °C

Q) Identify measured melting point corresponding to `N#Cc1c(-c2ccccc2)c(-c2ccccc2)n(-c2ccc(Cl)c(Cl)c2)c1NN=C1C(N)=NN=C1N`
A) 120 to 124 °C

Q) Identify measured melting point corresponding to `Cc1c(-n2cc(-c3ccccc3)c3c(N)ncnc32)c(=O)n(-c2ccccc2)n1C`
A) 152 to 155 °C

Q) Identify measured melting point corresponding to `N#Cc1c(-c2ccccc2)c(-c2ccccc2)n(-c2ccc(Cl)c(Cl)c2)c1N`
A) 118 to 122 °C

Q) Identify measured melting point corresponding to `Nc1ncnc2c1c(-c1ccccc1)c(-c1ccccc1)n2-c1ccc(Cl)c(Cl)c1`
A) 115 to 118 °C

Q) Identify measured melting point corresponding to `Nc1nc(=S)[nH]c2c1c(-c1ccccc1)c(-c1ccccc1)n2-c1ccc(Cl)c(Cl)c1`
A) 90 to 95 °C

Q) Identify measured melting point corresponding to `Cc1c(-n2cc(-c3ccccc3)c3c(N)nc(=S)[nH]c32)c(=O)n(-c2ccccc2)n1C`
A) 172 to 174 °C

Q) Identify measured melting point corresponding to `S=c1[nH]cnc2c1c(-c1ccccc1)c(-c1ccccc1)n2-c1ccc(Cl)c(Cl)c1`
A) 142 to 166 °C

Q) Identify measured melting point corresponding to `Cc1c(-n2cc(-c3ccccc3)c3c(Cl)ncnc32)c(=O)n(-c2ccccc2)n1C`
A) 125 to 130 °C

Q) Identify measured melting point corresponding to `CCOC(=O)C(C#N)=NNc1c(C#N)c(-c2ccccc2)c(-c2ccccc2)n1Cc1ccccc1`
A) 125 to 130 °C

Q) Identify measured melting point corresponding to `Cc1nc2c(c(-c3ccccc3)c(-c3ccccc3)n2Cc2ccccc2)c(=S)[nH]1`
A) 165 to 167 °C
